biological target: gastrin-releasing peptide receptor (UniProt P30550 1-384); assay: competition with 125I-GRP
Sequence (P30550 whole entry): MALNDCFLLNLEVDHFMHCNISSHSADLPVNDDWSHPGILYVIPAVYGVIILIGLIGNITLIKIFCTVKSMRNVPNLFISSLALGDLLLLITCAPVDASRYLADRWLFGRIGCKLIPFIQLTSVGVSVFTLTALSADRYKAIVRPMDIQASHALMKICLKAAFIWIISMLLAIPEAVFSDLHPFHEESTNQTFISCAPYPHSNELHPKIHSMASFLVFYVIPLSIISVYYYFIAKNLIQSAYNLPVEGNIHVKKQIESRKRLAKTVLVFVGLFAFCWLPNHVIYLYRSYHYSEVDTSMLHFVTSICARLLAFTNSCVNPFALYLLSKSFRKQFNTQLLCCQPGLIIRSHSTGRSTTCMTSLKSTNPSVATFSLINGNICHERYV
Where no end group is shown, it is not given here.
readoutType: IC50 (nM)
# unit: nM | format: bare number

(Q) Which IC50 value is on record for YKIKVNPRGNLWATGHFM (ends and bridges not checked) [neuromedin B, unlabeled ligand peptide of the radioligand binding assays] ?
(A) 151

(Q) Also need APLQPGGSPALTKIYPRGSHWAVGHLM (ends and bridges not checked) [gastrin-releasing peptide, unlabeled ligand peptide of the radioligand binding assays] , thanks.
(A) 0.2

These measurements were taken from paper PMC6422423.
